Target: human D2R (Homo sapiens (Human))
Sequence (P14416 whole entry): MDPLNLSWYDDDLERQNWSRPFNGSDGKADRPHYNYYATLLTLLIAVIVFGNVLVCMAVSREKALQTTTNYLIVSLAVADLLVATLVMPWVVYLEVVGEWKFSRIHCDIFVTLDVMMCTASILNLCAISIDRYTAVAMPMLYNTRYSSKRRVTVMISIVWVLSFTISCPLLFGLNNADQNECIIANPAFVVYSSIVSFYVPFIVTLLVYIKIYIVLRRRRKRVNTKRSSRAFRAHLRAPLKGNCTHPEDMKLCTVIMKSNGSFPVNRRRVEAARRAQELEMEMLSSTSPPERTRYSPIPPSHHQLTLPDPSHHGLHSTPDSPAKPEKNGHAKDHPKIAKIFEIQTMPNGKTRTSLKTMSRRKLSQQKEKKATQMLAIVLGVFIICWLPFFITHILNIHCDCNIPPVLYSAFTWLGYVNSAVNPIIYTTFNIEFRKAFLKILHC
Assay: Radioligand competition binding, [3H]N-methylspiperone, HEK293 membranes expressing human D2R
Conditions: Table 1A; HEK 293 cells transfected with hD2LR, [3H]N-methylspiperone; read-out: D2R Ki ± SEM
pKi: −log10 of the molar value.
test-readout: pKi

# count of solved cases: 3
compound | pKi
CCc1cccc(N2CCN(CC(O)CCNC(=O)c3cn4ccccc4n3)CC2)c1Cl (centres unmarked) | 6.71
CCc1cccc(N2CCN(CCCCNC(=O)c3c(C)nc4sccn34)CC2)c1Cl | 8.33
CCc1cccc(N2CCN(CCCCNC(=O)c3cc4ccccc4o3)CC2)c1Cl | 8.20

a: CCc1cccc(N2CCN(CCC(O)CNC(=O)c3cc4ccccc4[nH]3)CC2)c1Cl (centres unmarked)
b: CCc1c[nH]c(C(=O)NCCCCN2CCN(c3cccc(CC)c3Cl)CC2)n1
c: CCc1cc(Cl)c(OC)c(N2CCN(CC(O)CCNC(=O)c3cc4ccccc4o3)CC2)c1 (centres unmarked)
d: CCc1cc(Cl)c(OC)c(N2CCN(CCCCNC(=O)c3cc4ccccc4o3)CC2)c1
e: CCc1cc(Cl)c(OC)c(N2CCN(CCCCNC(=O)c3cc4ccccc4[nH]3)CC2)c1
q: Arrange the 5 entries by pKi so the values rise. Labels, requested order.
a: c, d, e, b, a

* * *

Molecular target: human D3R (Homo sapiens (Human), UniProt P35462)
Sequence (P35462 whole entry): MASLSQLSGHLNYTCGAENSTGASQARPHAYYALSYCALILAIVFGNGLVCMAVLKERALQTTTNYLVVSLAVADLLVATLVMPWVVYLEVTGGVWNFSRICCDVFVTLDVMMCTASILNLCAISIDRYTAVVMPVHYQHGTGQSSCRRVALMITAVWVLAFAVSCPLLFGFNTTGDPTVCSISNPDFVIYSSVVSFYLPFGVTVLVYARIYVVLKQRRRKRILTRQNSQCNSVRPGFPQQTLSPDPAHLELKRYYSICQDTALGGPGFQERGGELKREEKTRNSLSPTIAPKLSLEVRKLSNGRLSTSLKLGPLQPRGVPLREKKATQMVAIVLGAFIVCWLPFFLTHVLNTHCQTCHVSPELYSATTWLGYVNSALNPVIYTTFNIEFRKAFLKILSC
Test: Radioligand competition binding, [3H]N-methylspiperone, HEK293 membranes expressing human D3R
Details: Table 1A; HEK 293 cells transfected with hD3R, [3H]N-methylspiperone; read-out: D3R Ki ± SEM
test-readout: Ki (nM)

# count of solved cases: 2
molecule | units-symbol | Ki
CCc1cccc(N2CCN(CCC(O)CNC(=O)c3cc4ccccc4[nH]3)CC2)c1Cl (stereo not shown) | nM | 0.2
CCc1cccc(N2CCN(CCCCNC(=O)c3cn4ccccc4n3)CC2)c1Cl | nM | 0.33

1: CCc1cccc(N2CCN(CC(O)CCNC(=O)c3cc4ccccc4o3)CC2)c1Cl (stereo not shown)
2: CCc1cc(Cl)c(OC)c(N2CCN(CCCCNC(=O)c3cc4ccccc4o3)CC2)c1
q: Endpoint returns the identifier whose Ki is numerically larger, either 1 or 2 . In your reply, give the label of the chosen option.
a: 2

* * *

Biological target: 5-HT1A (Homo sapiens (Human))
Sequence (P08908 whole entry, species assumed): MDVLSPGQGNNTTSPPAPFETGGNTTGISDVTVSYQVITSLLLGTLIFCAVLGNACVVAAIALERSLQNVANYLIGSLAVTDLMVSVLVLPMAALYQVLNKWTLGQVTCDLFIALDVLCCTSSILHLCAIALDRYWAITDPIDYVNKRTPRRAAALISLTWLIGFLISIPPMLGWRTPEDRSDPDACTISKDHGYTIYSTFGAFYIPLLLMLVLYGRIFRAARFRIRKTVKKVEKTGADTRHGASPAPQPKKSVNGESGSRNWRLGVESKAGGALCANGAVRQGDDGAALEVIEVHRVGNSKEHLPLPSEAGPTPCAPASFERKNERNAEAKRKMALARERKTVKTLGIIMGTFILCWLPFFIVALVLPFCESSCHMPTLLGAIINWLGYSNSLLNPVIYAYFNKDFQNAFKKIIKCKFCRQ
Assay: 5-HT1A [3H]-8-OH-DPAT binding
Conditions: Table 3b; read-out: 5-HT1A [3H]-8-OH-DPAT Ki ± SEM
test-readout: Ki (nM)

compound | readout-value
CCc1cccc(N2CCN(C[C@H](O)CCNC(=O)c3cc4ccccc4[nH]3)CC2)c1Cl [(R)-19] | 248
CCc1cc(Cl)c(OC)c(N2CCN(CC(F)CCNC(=O)c3cc4ccccc4o3)CC2)c1 (racemic) | 2660
CCc1cccc(N2CCN(C[C@@H](O)CCNC(=O)c3cc4ccccc4[nH]3)CC2)c1Cl [(S)-19] | 131
CCc1cccc(N2CCN(CC(F)CCNC(=O)c3cc4ccccc4o3)CC2)c1Cl (racemic) | 117

A: CCc1cc(Cl)c(OC)c(N2CCN(CC(F)CCNC(=O)c3cc4ccccc4[nH]3)CC2)c1 (racemic)
B: CCc1cccc(N2CCN(CC(F)CCNC(=O)c3cc4ccccc4[nH]3)CC2)c1Cl (racemic)
q: Endpoint returns the identifier whose Ki is numerically larger, either A or B . In your reply, give the label of the chosen option.
a: A
(A: 9500 nM, B: 910 nM)
